Give phosphorylation enrichment for every item shown.
test system: AncSZ; assay: phosphorylation enrichment, bacterial display (enrichment ratio); higher = better substrate or ligand; peptides without Tyr show the background;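 also: 11-residue human phosphosite peptides and single-mutation variants displayed on the E. coli surface, counted by deep sequencing, each peptide's frequency after selection divided by its frequency in the unselected input library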;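 also: frequency after pTyr selection over input frequency; kinase dosed for 20-30% of maximal phosphorylation in three min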
Give bare numbers.

>  <macromolecule-sequence>
EACPSYSHVVL [CHST6_Y168_R166P]

>  <phosphorylation enrichment>
0.7

$$$$
>  <macromolecule-sequence>
REVPVYTYSEP [FAM120B_Y368_D370Y]

>  <phosphorylation enrichment>
3.86

$$$$
>  <macromolecule-sequence>
PLLEYYWDIFT [CDAN1_Y713_R714W]

>  <phosphorylation enrichment>
2.64

$$$$
>  <macromolecule-sequence>
DEEEEYEYMNR [ERBB3_Y1197_D1194E]

>  <phosphorylation enrichment>
1.17

$$$$
>  <macromolecule-sequence>
ILGRYYERGSI [PAX5_Y73_T75R]

>  <phosphorylation enrichment>
0.449

$$$$

Kindly give each listed record's phosphorylation enrichment.
1. CEHRGCLYLAI [TEK_Y897_Y897C]
2. EQSGSYIWVPA [DLG1_Y895]
3. FSMGCYEISLG [HMGCL_Y198_YF]
4. RKKEEYKMAPY [F8_Y1990_L1994P]
5. ADPQEYIPLPA [JAKtide_2014]
6. LTSKPYAFTAR [NDUFS1_Y236]
7. RSHLPYDVTPE [IQGAP3_Y1098]
8. CKLYQYYLDHL [ATRX_Y1849]

Reply:
1.04
1.86
1.93
1.16
0.904
0.663
1.82
1.74

Ask: Item DPTNTYARPAE [SGMS2_Y24] has what recorded phosphorylation enrichment?
Reply: 1.02

----------
target: Fes (UniProt P07332); experiment: phosphorylation enrichment, bacterial display (enrichment ratio); higher = better substrate or ligand; peptides without Tyr show the background
Sequence (P07332 whole entry, looked up): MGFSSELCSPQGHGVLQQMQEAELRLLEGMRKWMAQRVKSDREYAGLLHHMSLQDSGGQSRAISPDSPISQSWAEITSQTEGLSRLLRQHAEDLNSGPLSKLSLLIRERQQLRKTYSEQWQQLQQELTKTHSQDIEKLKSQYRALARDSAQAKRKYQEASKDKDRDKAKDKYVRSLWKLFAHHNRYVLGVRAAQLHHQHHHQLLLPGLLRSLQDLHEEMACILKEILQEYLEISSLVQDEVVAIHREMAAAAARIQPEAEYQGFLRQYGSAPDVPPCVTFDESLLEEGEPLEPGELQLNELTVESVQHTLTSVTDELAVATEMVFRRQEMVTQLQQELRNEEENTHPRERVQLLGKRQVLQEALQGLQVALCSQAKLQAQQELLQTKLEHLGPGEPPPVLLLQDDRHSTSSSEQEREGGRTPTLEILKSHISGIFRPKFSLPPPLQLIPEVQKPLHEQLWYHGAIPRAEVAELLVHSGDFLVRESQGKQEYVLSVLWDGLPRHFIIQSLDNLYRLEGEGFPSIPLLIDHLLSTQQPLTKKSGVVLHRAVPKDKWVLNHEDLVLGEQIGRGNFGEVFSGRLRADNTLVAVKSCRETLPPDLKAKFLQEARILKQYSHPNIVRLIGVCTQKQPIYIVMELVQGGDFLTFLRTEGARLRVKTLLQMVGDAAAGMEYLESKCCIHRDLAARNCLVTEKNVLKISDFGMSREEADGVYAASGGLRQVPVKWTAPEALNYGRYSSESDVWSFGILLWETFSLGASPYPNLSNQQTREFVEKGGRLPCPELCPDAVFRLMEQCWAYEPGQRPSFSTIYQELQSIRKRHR
Rule: phosphorylation enrichment of 1 or more gives rule met; anything lower gives rule not met.

Example results:
>  <macromolecule-sequence>
PLLEYYWDIFT [CDAN1_Y713_R714W]

>  <test-target>
Fes (UniProt P07332)

>  <assigned-category>
rule met

$$$$
>  <macromolecule-sequence>
IRKDLYSNNVL [ACTC1_Y296_A297S]

>  <test-target>
Fes (UniProt P07332)

>  <assigned-category>
rule not met

$$$$
>  <macromolecule-sequence>
KQMEQYMSFHK [HCN1_Y417_V414M]

>  <test-target>
Fes (UniProt P07332)

>  <assigned-category>
rule not met

$$$$
>  <macromolecule-sequence>
TDLAFYLVREG [ASL_Y376_K380E_YF]

>  <test-target>
Fes (UniProt P07332)

>  <assigned-category>
rule met

$$$$
>  <macromolecule-sequence>
LLASGYDSPIN [ABLIM1_Y638_R637G]

>  <test-target>
Fes (UniProt P07332)

>  <assigned-category>
rule met

$$$$

Ask: API: above_or_equal(metric=phosphorylation enrichment, cutoff=1) for item ETGEPCRLSPE [EIF4G1_Y311_Y311C]
Reply: rule met

Ask: Assess whether reported phosphorylation enrichment for FKEDPYLVVNP [MCM6_Y810_E806K_YF] sits at 1 or higher.
Reply: rule met

Ask: Exam item: decide whether the reported phosphorylation enrichment for HGDDDYDDPEL [CLNK_Y69_S65G] is at least 1.
Reply: rule met

Ask: In plain terms: is recorded phosphorylation enrichment at least 1 for KKGIVYVFNGR [ITGAV_Y404_I405V] ?
Reply: rule not met

Ask: Test whether the sequence KNEVLYDGENH [ARFGEF1_Y314] records phosphorylation enrichment of 1 or higher.
Reply: rule not met

Ask: Say whether ANARMYGVLPW [PLP1_Y207_D203N] shows phosphorylation enrichment of 1 or more.
Reply: rule not met
